The values you see were collected from patent US20220195015A1.

# Measured Target: SARS-CoV-2 RBD (wild type) (SARS-CoV-2, UniProt P0DTC2 319-539)
# Test Protocol: ELISA on coated RBD
Quantity Measured: EC50 (ng/mL)
One number for each entry, in ng/mL.

Below is a list of binders. For each, state its recorded EC50.
1. C035 (antibody, V domains shown) VH: EVQLVESGGGLVQPGGSLRLSCAASGFIFSSYWMTWVRQAPGKGLEWVASIKYNGNERNYVDSVKGRFTISRDNARNSLFLQLNNLGAEDTAVYYCARQPESTIWYYFDYWGQGTLVTVSS VL: SYELTQPPSVSVSPGQTARVTCSGHALPDQYTYWYQQRPGRAPVLVIYVNNQRPSGIPDRFSATTSGTTVTLTISGVQAEDEADYYCQSADSSGSYVVFGGGTKLTVL
2. C522 (antibody, V domains shown) VH: EVQLVESGGGLIQPGGSLRLSCAASEFIVSRNYMSWVRQAPGKGLEWVSVIYSGGSTFYADSVKGRFTISRDESKNTLYLQMNSLRAEDTAIYYCARDRGGGILDYWGQGTLVTVS VL: DIQMTQSPSSLSASVGDRVTITCQASQDINIFLNWYQQKPGKAPKLLIYDASSLETGVPSRFSGSGSGTDFTFTISSLQPEDFATYYCQQYGNLPKYTFGQGTKLEIK

stdout:
15.2
0.93
